Experiment: Brain pharmacokinetic studies in rats
Format: in vivo, Sprague-Dawley rats
Settings: Sprague-Dawley, rat; systemic (plasma), rats, iv, 2 mg/kg, solution
Description: Pharmacokinetic profiles of test articles were evaluated in fasted Sprague-Dawley rats. Different kinds of formulations were designed to ensure test articles fully dissolved and wouldn't precipitate in 1:10 SGF or FaSSIF dilution. Typically, Rats were dosed with 3 mg/kg and 5 mg/kg by intravenous injection and oral gavage, respectively. […] Dry the tissue on filtrate paper, which should be placed on ice, and then weigh the brain tissue and store at -70 °C and analyzed by LC/MS/MS for quantification. […]
Readout: half-life

half-life in this record for [2H]C([2H])([2H])CC(=O)c1cnc(NC(=O)C2CC2)cc1Nc1nn(C)c2ccc([C@H](O)C(F)(F)F)c(OC)c12 [Example 54A] : 1.7 h

----------
Test: Brain pharmacokinetic studies in dogs
Format: in vivo, Beagle dogs
Details: dog; systemic (plasma), Beagle dogs, iv, 2 mg/kg, solution, AUC0-4h; read-out: AUC
Protocol: Pharmacokinetic profiles of test articles were evaluated in Beagle dogs. Different kinds of formulations were designed to ensure test articles fully dissolved and wouldn't precipitate in 1:10 SGF or FaSSIF dilution. The animal was restrained manually at the designated time points, approximately 500 µL of blood sample was collected via cephalic vein into K2EDTA tubes. […]
For each of the compounds below, state its AUC.
# value in ng·h/mL; strip the unit string

AUC in this record for COC(=O)c1cnc(NC(=O)C2CC2)cc1Nc1nn(C)c2ccc([C@H](OC)C(F)(F)F)c(OC)c12 [Example 45B] : 1760

AUC in this record for [2H]C([2H])([2H])O[C@@H](c1ccc2c(c(Nc3cc(NC(=O)C4CC4)ncc3C(=O)OC)nn2C)c1OC)C(F)(F)F [Example 50B] : 1370

----------
For each of the compounds below, state its half-life at 1 µM.
assay: Microsomal metabolic stability assay; format: in vitro ADME; conditions: human, liver microsomes, pH 7.4; 0.5 mg/mL microsomal protein, 1 µM test article, 2 mM NADPH; read-out: Human LM T1/2
# value in h; strip the unit string

half-life at 1 µM in this record for COC(=O)c1cnc(NC(=O)[C@@H]2C[C@@H]2F)cc1Nc1nn(C)c2ccc(C(O)C(F)(F)F)c(OC)c12 (single isomer, unassigned) [Example 122A] : 1.49

half-life at 1 µM in this record for [2H]C([2H])([2H])NC(=O)c1cnc(NC(=O)[C@@H]2C[C@@H]2F)cc1Nc1cnn2cnc(C(C)C(F)(F)F)c(OC)c12 (stereo partly shown) : 3.15

half-life at 1 µM in this record for "[2H]C([2H])([2H])NC(=O)c1cnc(NC(=O)[C@@H]2C[C@@H]2F)cc1Nc1cnn2ccc(COC)c(OC)c12" : 1.87

half-life at 1 µM in this record for [2H]C([2H])([2H])NC(=O)c1cnc(NC(=O)C2CC2)cc1Nc1nn(C)c2ccc([C@H](O)C(F)(F)F)c(OC)c12 [Example 49A] : 1.19

half-life at 1 µM in this record for [2H]C([2H])([2H])OC(c1ccc2c(c(Nc3cc(NC(=O)C4CC4)ncc3C(=O)OC)nn2CCOC)c1OC)C(F)(F)F (stereo not shown) : 0.897

half-life at 1 µM in this record for [2H]C([2H])([2H])NC(=O)c1cnc(NC(=O)C2CC2)cc1Nc1cnn2cnc(C(C)C(F)(F)F)c(OC)c12 (stereo not shown) : 1.88

half-life at 1 µM in this record for [2H]C([2H])([2H])OC(c1ccc2c(c(Nc3cc(NC(=O)C4CC4)ncc3C(=O)OC)nn2C([2H])([2H])[2H])c1OC)C(F)F (stereo not shown) : 0.776

half-life at 1 µM in this record for COC(=O)c1cnc(NC(=O)C2CC2)cc1Nc1nn(C)c2ccc([C@H](OC)C(F)(F)F)c(OC)c12 [Example 45B] : 1.26

half-life at 1 µM in this record for "[2H]C([2H])([2H])NC(=O)c1cnc(Nc2ccn(C)n2)cc1Nc1cnn2ccc([C@H](O)C(F)(F)F)c(OC)c12" : 1.01

half-life at 1 µM in this record for CCn1nc(Nc2cc(NC(=O)C3CC3)ncc2C(=O)OC)c2c(OC)c(C(OC)C(F)(F)F)ccc21 (single isomer, unassigned) [Example 66B] : 1.62

half-life at 1 µM in this record for "[2H]C([2H])([2H])NC(=O)c1cnc(NC(=O)C2CC2)cc1Nc1cnn2ccc(COC([2H])([2H])[2H])c(OC)c12" : 0.827

half-life at 1 µM in this record for [2H]C([2H])([2H])NC(=O)c1cnc(NC(=O)C2CC2)cc1Nc1nn(C)c2ccc(C(O)C(F)(F)F)c(OC)c12 (stereo not shown) : 1.47

half-life at 1 µM in this record for "[2H]C([2H])([2H])NC(=O)c1cnc(NC(=O)C2CC2)cc1Nc1cnn2ccc([C@H](O)C(F)(F)F)c(OC)c12" : 1.48

Hello, the source for this data is patent EP4813463A2, in case you need it.
